- protocol description: Thermodynamic solubility
- Type: physicochemical
- stated conditions: 25 °C, thermodynamic from solid; thermodynamic solubility, 25 °C; read-out: Solubility 25ºC log S (converted)
readout: solubility (µM)

# compound, value unit, experimental result
measured = [
    ("Cc1ncsc1-c1ccc(CNC(=O)[C@@H]2C[C@H](O)CN2C(=O)[C@@H](NC(=O)COCCOCCOCCOCCOCCOCC(=O)N[C@H](C(=O)N2C[C@@H](O)C[C@H]2C(=O)NCc2ccc(-c3scnc3C)cc2)C(C)(C)C)C(C)(C)C)cc1", "µM", 331),
    ("Nc1cccc2c1C(=O)N(C1CCC(=O)NC1=O)C2=O (centres unmarked) [Pomalidomide]", "µM", 28.2),
]
